assay_system: T1, CD16A V158 (human, UniProt P08637 17-208, limits assumed)
T1 construct: construct not described
T1 sequence (P08637 17-208 F176V limits assumed): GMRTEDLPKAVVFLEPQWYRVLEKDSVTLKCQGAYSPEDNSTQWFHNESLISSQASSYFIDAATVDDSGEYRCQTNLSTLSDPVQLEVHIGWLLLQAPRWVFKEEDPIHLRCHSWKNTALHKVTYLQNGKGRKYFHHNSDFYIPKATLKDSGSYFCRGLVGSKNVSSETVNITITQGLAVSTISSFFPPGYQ
procedure_details: method not stated at Table 3
endpoint: binding relative to wild-type Fc (fold)

INSERT INTO measurements (binder, unit_label, meas_value) VALUES
  ('Fc variant D270E G316D R416G (other, UniProt P01857-1 104-330, looked up, domain: Fc) DKTHTCPPCPAPELLGGPSVFLFPPKPKDTLMISRTPEVTCVVVDVSHEEPEVKFNWYVDGVEVHNAKTKPREEQYNSTYRVVSVLTVLHQDWLNDKEYKCKVSNKALPAPIEKTISKAKGQPREPQVYTLPPSRDELTKNQVSLTCLVKGFYPSDIAVEWESNGQPENNYKTTPPVLDSDGSFFLYSKLTVDKSGWQQGNVFSCSVMHEALHNHYTQKSLSLSPGK', 'fold', 2.18),
  ('Fc variant P247L D270E N421K (other, UniProt P01857-1 104-330, looked up, domain: Fc) DKTHTCPPCPAPELLGGPSVFLFPPKLKDTLMISRTPEVTCVVVDVSHEEPEVKFNWYVDGVEVHNAKTKPREEQYNSTYRVVSVLTVLHQDWLNGKEYKCKVSNKALPAPIEKTISKAKGQPREPQVYTLPPSRDELTKNQVSLTCLVKGFYPSDIAVEWESNGQPENNYKTTPPVLDSDGSFFLYSKLTVDKSRWQQGKVFSCSVMHEALHNHYTQKSLSLSPGK', 'fold', 1.89),
  ('Fc variant F243L D270E G316D R416G (other, UniProt P01857-1 104-330, looked up, domain: Fc) DKTHTCPPCPAPELLGGPSVFLLPPKPKDTLMISRTPEVTCVVVDVSHEEPEVKFNWYVDGVEVHNAKTKPREEQYNSTYRVVSVLTVLHQDWLNDKEYKCKVSNKALPAPIEKTISKAKGQPREPQVYTLPPSRDELTKNQVSLTCLVKGFYPSDIAVEWESNGQPENNYKTTPPVLDSDGSFFLYSKLTVDKSGWQQGNVFSCSVMHEALHNHYTQKSLSLSPGK', 'fold', 1.5);

Cited source for all entries: patent US20240131162A1
